The following molecules are listed with their measured Giant foxtail plant response rating values.
System: giant foxtail (Setaria faberii)
Test: Test B pre-/postemergence
Type: in vivo
Conditions: Rate 62 g/ha, Postemergence
Please give the numeric answer without any surrounding text.

The examples below pair each entry with its known result.
{"Molecule": "Cc1cnc(-c2ccc(C(F)(F)F)cc2)nc1C(=O)c1cccc(C(F)(F)F)c1 [Compound 73]", "Property": "Giant foxtail plant response rating", "Numeric Result": 6}
{"Molecule": "COc1cnc(-n2ccc(C(F)(F)F)n2)nc1C(=O)c1cccc(C(F)(F)F)c1 [Compound 60]", "Property": "Giant foxtail plant response rating", "Numeric Result": 2}
{"Molecule": "Cc1cnc(-c2ccc(C(F)(F)F)cc2)nc1Cn1cc(Br)cn1 [Compound 54]", "Property": "Giant foxtail plant response rating", "Numeric Result": 2}
{"Molecule": "O=C(c1cccc(C(F)(F)F)c1)c1ccnc(-c2ccc(C(F)(F)F)cc2)n1 [Compound 77]", "Property": "Giant foxtail plant response rating", "Numeric Result": 0}
{"Molecule": "CCc1cnc(-n2ccc(C(F)(F)F)n2)nc1C(=O)c1cccc(C(F)(F)F)c1 [Compound 69]", "Property": "Giant foxtail plant response rating", "Numeric Result": 2}

Let us move to another entry and its Giant foxtail plant response rating.
input: Looking for the measured Giant foxtail plant response rating of Cc1cnc(-n2cnc(C(F)(F)F)c2)nc1C(=O)c1cccc(OC(F)(F)F)c1 [Compound 63] , can you help?
output: 2

* * *

The following compounds are listed with their measured Nutsedge plant response rating values.
Tested on: purple nutsedge (Cyperus rotundus)
Experiment: Test B pre-/postemergence
Type: in vivo
Parameters: key: 0 is no effect; 10 is complete control
Conditions: Rate 125 g/ha, Postemergence
Please give the numeric answer without any surrounding text.

{"Smiles Notation": "Cc1cnc(-c2ccc(C(F)(F)F)cc2)nc1Cn1ccc(C#N)n1", "Property": "Nutsedge plant response rating", "Numeric Result": 0}
{"Smiles Notation": "Cc1cnc(-n2cnc(C(F)(F)F)c2)nc1C(=O)c1cccc(C(F)(F)F)c1", "Property": "Nutsedge plant response rating", "Numeric Result": 0}
{"Smiles Notation": "Cc1cnc(-c2ccc(Cl)cc2)nc1Cc1cccc(C(F)(F)F)c1", "Property": "Nutsedge plant response rating", "Numeric Result": 3}

input: Give recorded Nutsedge plant response rating with purple nutsedge (Cyperus rotundus) for the following compound: Cc1cnc(-c2ccc(C(F)(F)F)cc2)nc1Cc1cccc(C#N)c1
output: 0

input: Cool, now Cc1cnc(-n2ccc(C(F)(F)C(F)(F)F)n2)nc1C(=O)c1cccc(C(F)(F)F)c1
output: 0

input: Cool, now CCc1cnc(-n2cnc(C(F)(F)F)n2)nc1Cc1cccc(OC(F)(F)F)c1
output: 2

input: Cool, now Cc1cnc(-c2ccc(F)cc2F)nc1Cc1cccc(C(F)(F)F)c1
output: 0

input: Cool, now Cc1cnc(-c2ccc(Cl)c(Cl)c2)nc1Cc1cccc(C#N)c1
output: 0

* * *

Tested on: wild oat (Avena fatua)
Assay: Test B pre-/postemergence
Type: in vivo
Conditions: Rate 250 g/ha, Preemergence
Property: Plant response rating, Wild oats
Please give the numeric answer without any surrounding text.

The examples below pair each entry with its known result.
{"Compound": "Cc1cnc(-n2ccc(C(F)(F)C(F)(F)F)n2)nc1C(=O)c1cccc(C(F)(F)F)c1 [Compound 68]", "Plant response rating, Wild oats": 7}
{"Compound": "COC(c1cccc(C(F)(F)F)c1)c1nc(-c2ccc(C(F)(F)F)cc2)ncc1C (racemic) [Compound 20]", "Plant response rating, Wild oats": 3}
{"Compound": "Cc1cnc(-n2ccc(C(F)(F)C(F)(F)F)n2)nc1C(=O)c1cccc(OC(F)(F)F)c1 [Compound 62]", "Plant response rating, Wild oats": 4}
{"Compound": "Cc1cnc(-c2ccc(C(F)(F)F)cc2)nc1Cn1ccc(C(F)(F)F)n1 [compound 9]", "Plant response rating, Wild oats": 9}
{"Compound": "Cc1cnc(-n2ccc(C(F)(F)F)n2)nc1Cc1cccc(C(F)(F)F)c1 [Example 2]", "Plant response rating, Wild oats": 9}
{"Compound": "CCc1cnc(-c2ccc(C(F)(F)F)cc2)nc1Cc1cccc(C(F)(F)F)c1 [Compound 22]", "Plant response rating, Wild oats": 9}
{"Compound": "Cc1cnc(-c2ccccc2)nc1Cn1ccc(C(F)(F)F)n1 [Compound 7]", "Plant response rating, Wild oats": 0}

Let us move to another entry and its Plant response rating, Wild oats.
input: Give recorded Plant response rating, Wild oats with wild oat (Avena fatua) for the following compound: Cc1cnc(-n2ccc(C(F)(F)F)n2)nc1C(=O)c1cccc(OC(F)(F)F)c1 [Compound 66]
output: 5

* * *

Tested on: wild oat (Avena fatua)
Experiment: Test B pre-/postemergence
Format: in vivo
Design: key: 0 is no effect; 10 is complete control
Conditions: Rate 250 g/ha, Postemergence (so in the source)
Property: Plant response rating, Wild oats
Please give the numeric answer without any surrounding text.

The examples below pair each entry with its known result.
{"Smiles Notation": "COc1cnc(-n2ccc(C(F)(F)F)n2)nc1Cc1cccc(C(F)(F)F)c1", "Plant response rating, Wild oats": 0}
{"Smiles Notation": "Cc1cnc(-n2cnc(C(F)(F)F)n2)nc1Cc1cccc(C(F)(F)F)c1", "Plant response rating, Wild oats": 9}
{"Smiles Notation": "CCc1cnc(-n2cnc(C(F)(F)F)n2)nc1Cc1cccc(OC(F)(F)F)c1", "Plant response rating, Wild oats": 8}
{"Smiles Notation": "Cc1cnc(-c2ccccc2F)nc1Cc1cccc(C#N)c1", "Plant response rating, Wild oats": 0}

Let us move to another entry and its Plant response rating, Wild oats.
input: Give recorded Plant response rating, Wild oats with wild oat (Avena fatua) for the following compound: Cc1cnc(-c2ccc(Cl)cc2F)nc1Cc1cccc(C(F)(F)F)c1
output: 1

* * *

The following molecules are listed with their measured Rape plant response rating values.
Test system: rape (Brassica napus)
Test: Test B pre-/postemergence
Assay type: in vivo
Conditions: Rate 125 g/ha, Postemergence
Please give the numeric answer without any surrounding text.

input: Looking for the measured Rape plant response rating of Cc1cnc(-c2ccc(C(F)(F)F)cc2)nc1C(=O)c1cccc(OC(F)(F)F)c1 , can you help?
output: 7

input: Cool, now Cc1cnc(-n2cnc(C(F)(F)F)n2)nc1C(=O)c1cccc(OC(F)(F)F)c1
output: 4

input: Cool, now Cc1cnc(-c2ccc(C(F)(F)F)cc2)nc1Cc1cccc(C#N)c1
output: 8

input: Cool, now COc1cnc(-n2ccc(C(F)(F)F)n2)nc1Cc1cccc(C(F)(F)F)c1
output: 0

* * *

Tested on: rape (Brassica napus)
Assay: Test B pre-/postemergence
Type: in vivo
Parameters: key: 0 is no effect; 10 is complete control
Conditions: Preemergence, Rate 62 g/ha; scale of 0 to 10
Procedure: […] At the same time, these crop and weed species were also treated with postemergence applications of test chemicals formulated in the same manner. […] Treated plants and controls were maintained in a greenhouse for twelve to sixteen days, after which all species were compared to controls and visually evaluated. […]
The following compounds are listed with their measured Plant response rating, Rape values.
Please give the numeric answer without any surrounding text.

{"Smiles Notation": "Cc1cnc(-c2ccc(C(F)(F)F)cc2)nc1Cn1cc(Br)cn1", "Numeric Result": 0}
{"Smiles Notation": "Cc1cnc(-n2ccc(C(F)(F)F)n2)nc1C(=O)c1cccc(OC(F)(F)F)c1", "Numeric Result": 0}
{"Smiles Notation": "Cc1cnc(-n2ccc(C(F)(F)C(F)(F)F)n2)nc1C(=O)c1cccc(OC(F)(F)F)c1", "Numeric Result": 0}
{"Smiles Notation": "Cc1cnc(-c2ccc(C(F)(F)F)cc2)nc1C(=O)c1cccc(OC(F)(F)F)c1", "Numeric Result": 2}

Let us move to another entry and its Plant response rating, Rape.
input: Looking for the measured Plant response rating, Rape of O=C(c1cccc(C(F)(F)F)c1)c1ccnc(-c2ccc(F)cc2F)n1 , can you help?
output: 0

* * *

System: broadleaf signalgrass (Brachiaria decumbens)
Experiment: Test B pre-/postemergence
Type: in vivo
Settings: Rate 250 g/ha, Postemergence as printed in head r139 (second section for compounds 26-50)
The following compounds are listed with their measured Plant response rating, B. signalgrass values.

input: Give recorded Plant response rating, B. signalgrass with broadleaf signalgrass (Brachiaria decumbens) for the following compound: Cc1cnc(-c2ccc(C(F)(F)F)cc2)nc1Cc1cccc(C#N)c1
output: 7

* * *

System: crabgrass (Digitaria sanguinalis)
Assay: Test B pre-/postemergence
Assay type: in vivo
Settings: Rate 250 g/ha, Preemergence
Lab note: compare Plant response rating, Crabgrass against 9. Equal or greater, write True. Smaller, write False.

{"Compound": "Cc1cnc(-c2ccc(C(F)(F)F)cc2)nc1Cn1ccc(C#N)n1", "Group": "False"}
{"Compound": "Cc1cnc(-c2ccc(Cl)cc2)nc1Cn1ccc(C(F)(F)F)n1", "Group": "False"}
{"Compound": "Cc1cnc(-c2ccc(C(F)(F)F)cc2)nc1C(C)c1cccc(C(F)(F)F)c1 (racemic)", "Group": "False"}
{"Compound": "CCc1cnc(-c2ccc(C(F)(F)F)cc2)nc1Cc1cccc(C(F)(F)F)c1", "Group": "True"}
{"Compound": "Cc1cnc(-n2ccc(C(F)(F)F)n2)nc1C(=O)c1ccc(C(F)(F)F)cc1", "Group": "False"}
{"Compound": "Cc1cnc(-c2ccc(C(F)(F)F)cc2)nc1C(=O)c1cccc(C(F)(F)F)c1", "Group": "True"}
{"Compound": "Cc1cnc(-c2ccc(C(F)(F)F)cc2)nc1C(Cl)c1cccc(C(F)(F)F)c1 (racemic)", "Group": "True"}
{"Compound": "Cc1cnc(-n2cnc(C(F)(F)F)c2)nc1C(=O)c1cccc(OC(F)(F)F)c1", "Group": "False"}

input: Is it the case that Cc1cnc(-c2ccc(C(F)(F)F)cc2)nc1Cn1ccc(C(F)(F)F)n1 has Plant response rating, Crabgrass reaching or exceeding 9?
output: True

input: Cool, now Cc1cnc(-c2ccc(C(F)(F)F)cc2)nc1Cn1nc(C(F)(F)F)cc1C
output: True

input: Cool, now Cc1cnc(-c2ccccc2)nc1Cn1ccc(C(F)(F)F)n1
output: False

input: Cool, now Cc1cnc(-n2cnc(C(F)(F)F)n2)nc1C(=O)c1cccc(C(F)(F)F)c1
output: True
